Molecular target: 20-HETE-Producing Enzyme derived from Human Renal Microsome
Assay: Inhibitory action to 20-HETE-producing enzyme derived from human renal microsome
Conditions: human renal microsome fraction, tritium-arachidonic acid substrate, NADPH, 37° C., 1.5 hours, pH 7.4; read-out: IC50 (inhibition of 20-HETE production)
# log10 IC50 values compiled below
# values: log10(IC50), units nM

# annotated cases, reported log10 IC50 shown
1. Cl.OCCN1CCN(c2ccc(N/C=N/O)cc2)CC1 = 1.86
2. O/N=C/Nc1ccc(N2CCCCCCC2)cc1 = 1.01

Prompt: Tell me the measured log10 IC50 of "CCOC(=O)C1CCN(c2ccc(N/C=N/O)cc2Cl)CC1" , please.
Completion: 0.60

Prompt: Tell me the measured log10 IC50 of CC1CN(c2ccc(N/C=N/O)cc2Cl)CC(C)O1 (stereo not drawn) , please.
Completion: 1.67

Prompt: Tell me the measured log10 IC50 of "CCN1CCN(c2ccc(N/C=N/O)cc2Cl)CC1" , please.
Completion: 1.86

Prompt: Tell me the measured log10 IC50 of "O/N=C/Nc1ccc(N2CCSCC2)c(Br)c1" , please.
Completion: 0.36

* * *

Target: 20-HETE-Producing Enzyme derived from Human Renal Microsome
Test: Inhibitory action to 20-HETE-producing enzyme derived from human renal microsome
Assay type: biochemical
Conditions: human renal microsome fraction, tritium-arachidonic acid substrate, NADPH, 37° C., 1.5 hours, pH 7.4; read-out: IC50 (inhibition of 20-HETE production)
Experimental: Inhibitory Action to 20-HETE-Producing Enzyme derived from Human Renal Microsome With regard to the compounds listed in the above table, their inhibitory actions to 20-HETE production were tested. This test was carried out in accordance with a method mentioned in J. Pharmacol. Exp. Ther., volume 268, page 474 (1994). […]
Property measured: pIC50
Friendly reminder that pIC50 comes from taking -log10 of the concentration in mol/L.

1) Cc1cc(N2CC=CCC2)ccc1N/C=N/O = 6.18
2) CN1CCN(c2ccc(N/C=N/O)cc2Cl)CC1 = 6.97
3) O/N=C/Nc1ccc(N2CCSCC2)c(Cl)c1 = 8.44
4) Cl.O=C(CN1CCN(c2ccc(N/C=N/O)cc2)CC1)N1CCOCC1 = 7.16
5) O/N=C/Nc1ccc(N2CCC(O)CC2)c(Cl)c1 = 8.47

Prompt: Tell me the measured pIC50 of "O/N=C/Nc1ccc(N2CCOCC2)nc1" , please.
Completion: 6.67

* * *

Biological target: 20-HETE-Producing Enzyme derived from Human Renal Microsome
Test: Inhibitory action to 20-HETE-producing enzyme derived from human renal microsome
Details: human renal microsome fraction, tritium-arachidonic acid substrate, NADPH, 37° C., 1.5 hours, pH 7.4; read-out: IC50 (inhibition of 20-HETE production)
# log10 of IC50 values compiled below
# values: log10(IC50), units nM

# annotated cases, reported log10 of IC50 shown
1. CCN1CCN(c2ccc(N/C=N/O)cc2Br)CC1 = 2.19
2. OCCC1CCN(c2ccc(N/C=N/O)cn2)CC1 = 1.57

Prompt: Tell me the measured log10 of IC50 of "Cl.O/N=C/Nc1ccc(N2CCN(C3CCCCC3)CC2)c(F)c1" , please.
Completion: 2.02

Prompt: Tell me the measured log10 of IC50 of "O/N=C/Nc1ccc(N2CCC3(CC2)OCCO3)c(F)c1" , please.
Completion: 0.85

Prompt: Tell me the measured log10 of IC50 of "CCN1CCN(c2ccc(N/C=N/O)cc2C(F)(F)F)CC1" , please.
Completion: 2.71

Prompt: Tell me the measured log10 of IC50 of "Cc1cc(N2CCN(CCN3CCCC3)CC2)ccc1N/C=N/O.Cl" , please.
Completion: 2.88

Prompt: Tell me the measured log10 of IC50 of "CCN1CCN(c2ccc(N/C=N/O)cc2F)CC1" , please.
Completion: 1.57

Prompt: Tell me the measured log10 of IC50 of "O/N=C/Nc1ccc(N2CCN(C3CCCCC3)CC2)cc1" , please.
Completion: 1.17

Prompt: Tell me the measured log10 of IC50 of "Cl.O/N=C/Nc1ccc(N2CCN(CCN3CCCC3)CC2)c(Cl)c1" , please.
Completion: 2.35

Prompt: Tell me the measured log10 of IC50 of "O/N=C/Nc1ccc(N2CCN(C3CCCCC3)CC2)c(C(F)(F)F)c1" , please.
Completion: 2.73
